Reference source: paper PMC10977697

Below: a set of entries, each annotated with reported S/N.
- Tested on: Notch2NRR
- assay_comment: Spot phage ELISA, Notch2NRR
- Type: binding, human
- study_conditions: spot phage ELISA on Notch2NRR, signal-to-noise ratio of phage-displayed DCP clone
Where no end group is shown, it is not given here.
// response body must contain only the number

Short answer for AFDCLGQCGRCDFHKLQCVWGNRNSSYCNSSCTR (disulfide (positions not given here)) [AVR9 6] : S/N was 35.2

Entry GPTQSHYGQCGGFGYWGMRHCSGTTCQWQHLPSQ CLPGAS (disulfide) [CBD 3] , S/N reported as 36.6

S/N recorded for this sequence, AFDCLGQCGRCDFHKLQCVVGWASMRNYCNSSCTR (disulfide (positions not given here)) [AVR9 8] , is 42.0
